- assay_text: folding stability dG unfold from trypsin proteolysis; higher = more stable
measured_property: folding stability dG unfold (kcal/mol)

>  <sequence_code>
SAGGEKTLTVEYNPEDDYLTFTLTLTRPGYDPVTGKPREYKVTLTFTVPLNEATPEHVKLALEIYEKDSAGG [r13_980_TrMRF]

>  <measured_property>
folding stability dG unfold

>  <assay_result>
2.88

$$$$
>  <sequence_code>
SAGGYDFDPRGEFPFPNGVKVEVWEMTWPDGNPMTMIEIEATIPPPPKPPMSPEDAKENNKDMAKNNSAGGS [r16_8_TrROS]

>  <measured_property>
folding stability dG unfold

>  <assay_result>
-0.415

$$$$
>  <sequence_code>
SGATVTVSKDGRTYTVTVSPNATVTVEVRDPTSTSTYTQTVPPGQPTTVSLPLPSDVSSSVTIASIDVGASA [r9_1152_JUSTAS]

>  <measured_property>
folding stability dG unfold

>  <assay_result>
0.439

$$$$
>  <sequence_code>
SAGGSASTYEPEVYTFTGKNKKIKVIVVKPKDNPTAKIIVYDENGNVLATIEFPAENVEKALKELASAGGSA [r15_940_TrMRF]

>  <measured_property>
folding stability dG unfold

>  <assay_result>
2.02

$$$$
>  <sequence_code>
SAGGPKPGEKWIARTKEGLVPITLEGDKVTITDALTGKKTVIPIPGASLEEIKELLLSEPDYEVYPESAGGS [r16_583_JUSTAS]

>  <measured_property>
folding stability dG unfold

>  <assay_result>
-0.603

$$$$
>  <sequence_code>
SAGGFKIKNIDVERNPDNGWRTITVEFPGNGWKFQIQVPPDGGVKYEWYNNGEPQTYTIPADDLKDLSAGGS [r8_238_TrROS]

>  <measured_property>
folding stability dG unfold

>  <assay_result>
1

$$$$
>  <sequence_code>
SAGGSAGGSAGKEEIKIEITKVEPLEDGSYIAEVIATPKNGKKIPYTALIDPKTGKITIGSAGGSAGGSAGG [r11_31_TrMRF]

>  <measured_property>
folding stability dG unfold

>  <assay_result>
0.527

$$$$
